Answer each item with its documented self-cleavage.
B1: OR4K15 (parent)
chain: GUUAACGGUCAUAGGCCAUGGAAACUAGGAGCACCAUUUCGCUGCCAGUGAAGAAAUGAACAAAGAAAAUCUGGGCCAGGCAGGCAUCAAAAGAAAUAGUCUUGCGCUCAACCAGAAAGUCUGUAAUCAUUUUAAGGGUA

Variants of: B1
Assay Text: self-cleavage, relative activity (ratio to wild type); higher = more cleavage; in vitro, sequencing; the parent is a self-cleaving ribozyme

Known self-cleavage results, listed for orientation:
Entry Sequence	self-cleavage
GUUAACGGUCAUAGGCCAUGGAAACUAGGAGCGCCAUUUCGCCGCCAGUGAAGAAAUGAACAAAGAAAAUCUGGGCCAGGCAGGCAUCAAAAGAAAUAGUCUUGCGCUCAACCAGAAAGUCUGUAAUCAUUUUAAGGGUA [A33G U43C]	0.71
GUUAACGGUCAUAGGCCAUGGAAACUAGGAGCACCAUUUCGCUGCCGGUGAAGAAAUGAACAAAGAAAAUCUGGGCCAGGCAGGCAUCAAAAGAAAUAGUCUUGAGCUCAACCAGAAAGUCUGUAAUCAUUUUAAGGGUA [A47G C105A]	0.07
GUUAACGGUCAUAGGCCAUGGAAACUAGGAGCACCAUUUCGCUGCCAGUGAAGAAAUGCACAAAGAAAAUCUGGGCCAGGCAGGCAUCAAAAGAAAUAGUCUUGCGCUCAACCAGAAAGUCCGUAAUCAUUUUAAGGGUA [A59C U122C]	1.06
GUUAACGGUCAUAGGCCAUGGAAACUAGGAGCACCAUUUCGCUGCCAGUGAAGAAAUGAACAAAGAAAAUCUGGGCCAGGCAGGCAUCAAAAGAAAUAGCCUUGCGCUCAACCAGAAAGUCUGAAAUCAUUUUAAGGGUA [U100C U124A]	2.17
GUUAACGGUCAUAGGCCAUGGAAACUAGGAGCACCAUCUCGCUGCCAGUGAAGAAAUGAACAAAGAAAAUCUGGGCCUGGCAGGCAUCAAAAGAAAUAGUCUUGCGCUCAACCAGAAAGUCUGUAAUCAUUUUAAGGGUA [U38C A78U]	0.35
GGUAACGGUCUUAGGCCAUGGAAACUAGGAGCACCAUUUCGCUGCCAGUGAAGAAAUGAACAAAGAAAAUCUGGGCCAGGCAGGCAUCAAAAGAAAUAGUCUUGCGCUCAACCAGAAAGUCUGUAAUCAUUUUAAGGGUA [U2G A11U]	1.51
GUUAAUGGUCAUAGGCCAUGGAAACUAGGAGCACCAUUUCGCUGCCAGUGAAGAAAUGAACAAAGAAAAUCUGGGCCAGGCAGGCAUCAAAAGAAAUAGUCAUGCGCUCAACCAGAAAGUCUGUAAUCAUUUUAAGGGUA [C6U U102A]	1.22
GUUAACGGUCAUAGGCCAUGGGAACUAGGAGCACCAUUUCGCUACCAGUGAAGAAAUGAACAAAGAAAAUCUGGGCCAGGCAGGCAUCAAAAGAAAUAGUCUUGCGCUCAACCAGAAAGUCUGUAAUCAUUUUAAGGGUA [A22G G44A]	1.2
GUUAACGGUCAUAGGCCAUGGAAACUAGGAGCACCAUUUCGCUGCCAGUGAAGAAAUGAACAAAGAAAGUCUGGGCCAGGCUGGCAUCAAAAGAAAUAGUCUUGCGCUCAACCAGAAAGUCUGUAAUCAUUUUAAGGGUA [A69G A82U]	0.18
GUUAACGGUCAUAGGCCAUGGAAACUAGGAGCACCAUUUCGCUGCCAGUGAAGAAAUGAACAAAGAAAAUCUGGGCCAGGCAGGUAUCAAAAGAAAUAGUCUUGCGCUCAACCAGAAAGUCUGUAAUCAUUUUAAGGGUG [C85U A140G]	1.26

Batch lookup, self-cleavage per entry.
1. GUUAACGGUCAUAGACCAUGGAAACUAGGAGCACCAUUUCGCUGCCAGUGAAGAAAUGAACAAAGAAAAUCUGGGCCAGGCAGGCAUCAAAGGAAAUAGUCUUGCGCUCAACCAGAAAGUCUGUAAUCAUUUUAAGGGUA [G15A A92G]
2. GUUAACGGUCAUAGGCCAUGGAUACUAGGAGCACCAUUUCGCUGCCAGUGAAGAAAUGAACAAAGAAAAUCUGGGCCAGGCAGGCAUCAAAAGAAAUAGUCUUGCGCCCAACCAGAAAGUCUGUAAUCAUUUUAAGGGUA [A23U U108C]
3. GUUAACGGUCGUAGGCCAUGGAAACUAGGAGCACCAUUUCGCUGCCAGUGAAGAAAUGAACAAAGAAAAUCUGGGCCAGGCAGGCAUCAAAAGAAAUAGUCUUGCGCUCAACCAGAAAGUCUGAAAUCAUUUUAAGGGUA [A11G U124A]
4. GUUAACGGUCAUAGGCCAUGGAAACUAGGAGCUCCAUUUCGCUGCCAGUGAAGAAAUGAACAAAGAAAAUCUGGGCCAGGCAGGCAUCAAAAGAAAUAGUCUUGCGCUCAACCAGAAAGUCUGUAAUCGUUUUAAGGGUA [A33U A129G]
5. GUUAACGGUCAUAGGCCAUGGAAACUAGGAGCACCAUUUCGCUGCCAGUGAAGAAAUGAACAAAGAAAAUCUGAGCCAGGCAGGCAUCAAAAGAAGUAGUCUUGCGCUCAACCAGAAAGUCUGUAAUCAUUUUAAGGGUA [G74A A96G]
6. GUUAACGGUCAUAGGCCAUGGAAACUAGGAGCACCAUUUCGCUGCCAGUGAAGAAAUGAACAAAGAAAAUCUGGGCCAGGCAGGCAUCAUAAGAAAUAGUCUUGCGCUCGACCAGAAAGUCUGUAAUCAUUUUAAGGGUA [A90U A110G]
7. GUUAACGGUCAUAGGCCAUGGAAACUAGGAGCACCAUUUCGCUGCCAGUGAAGAAAUGAACAAAGAAAAUCUGGGCCAGGCAGGCAUCAAAAGAAAUAGUCACGCGCUCAACCAGAAAGUCUGUAAUCAUUUUAAGGGUA [U102A U103C]

Result:
1.65
0.01
0.66
1.03
0.24
0.08
0.12

Batch lookup, self-cleavage per entry.
1. GUUAACGGUCAUGGGCCAUGGAAACUAGGAGCACCAUUUCGCUGCCAGUGAAGAAAUGAACAUAGAAAAUCUGGGCCAGGCAGGCAUCAAAAGAAAUAGUCUUGCGCUCAACCAGAAAGUCUGUAAUCAUUUUAAGGGUA [A13G A63U]
2. GUUAACGGUCAUAGGCCAUGGAAACUAGGAGCACCAGUUCGCUGCCAGUGAAGAAAUGAACAAAGAAAAUCUGGGCCAGGCAGGCAUCAAAAGAAAUAGCCUUGCGCUCAACCAGAAAGUCUGUAAUCAUUUUAAGGGUA [U37G U100C]
3. GUUAACGGUCAUAGGCCUUGGAAACUAGGAGCACCAUUUCGCUGCCAUUGAAGAAAUGAACAAAGAAAAUCUGGGCCAGGCAGGCAUCAAAAGAAAUAGUCUUGCGCUCAACCAGAAAGUCUGUAAUCAUUUUAAGGGUA [A18U G48U]
4. GUUAACGGUCAUAGGCCACGGAAACUGGGAGCACCAUUUCGCUGCCAGUGAAGAAAUGAACAAAGAAAAUCUGGGCCAGGCAGGCAUCAAAAGAAAUAGUCUUGCGCUCAACCAGAAAGUCUGUAAUCAUUUUAAGGGUA [U19C A27G]
5. GAUAACGGUUAUAGGCCAUGGAAACUAGGAGCACCAUUUCGCUGCCAGUGAAGAAAUGAACAAAGAAAAUCUGGGCCAGGCAGGCAUCAAAAGAAAUAGUCUUGCGCUCAACCAGAAAGUCUGUAAUCAUUUUAAGGGUA [U2A C10U]
6. GUUAACGGUCAUAGGCCAUGGAAACUAGGAGCACCAUUUCGCUGCCAGUGAAGAAAUGAACAAAGAAAAUCUGGGCCAGGCAGGCAUCUAAAGAAAUAGUCUUGCGCGCAACCAGAAAGUCUGUAAUCAUUUUAAGGGUA [A89U U108G]

Result:
1. 0.77
2. 1.67
3. 1.24
4. 0.89
5. 0.88
6. 0

Batch lookup, self-cleavage per entry.
1. GUUAACGGUCAUAGGCCAUGGAAACUAGGAGCACCAUUUCGCUGCCAGUGAAGACAUGAACAAAGAAAAUCUGGGCCAGGCAGGCAUCAAAAGAAAUAGUCUAGCGCUCAACCAGAAAGUCUGUAAUCAUUUUAAGGGUA [A55C U103A]
2. GUUAACGGUCAUAGGCCAAGGAAACUAGGAGCACCAUUUCGCUGCCAGUGAAGAAAUGAACAAAGAAAAUCUGGGCCAGGCAGGCAUCAAAAGAAAUAGUCUUGCGCUCAACCAGAAAGUCUGUACUCAUUUUAAGGGUA [U19A A126C]

Result:
0.38
0.55
